Hey, just so you know, these numbers are from ChEMBL document CHEMBL4673245.

Assay: Dissociation constant, dibasic pKa of compound in 0.1 M potassium chloride in presence of piperidine by UV-vis spectroscopy
Assay type: physicochemical
The entries below come with measured pKa values attached.

>>> print(df.to_string())
                                   compound  value_kind  measured_result
0  COc1cc(NC2CN(CCCF)C2)ccc1[C@@H]1c2ccc3[nH]ncc3c2C[C@@H](C)N1CC1(F)CC1         pKa              7.8

Next item in the queue.
Query (compound): C[C@@H]1Cc2c(ccc3[nH]ncc23)[C@@H](c2ccc(NC3CN(CCCF)C3)cn2)N1CC(F)(F)F [CAMIZESTRANT] ; field requested: pKa
4.8

###

Experiment: Solubility of compound in FASSIF at pH 6.5 using crystalline form of sample
Format: physicochemical
Value Kind: solubility thermodynamic (µg/mL)
Answer in µg/mL, number only, no unit symbol.

Query (compound): C[C@@H]1Cc2c(ccc3[nH]ncc23)[C@@H](c2ccc(NC3CN(CCCF)C3)cn2)N1CC(F)(F)F ; field requested: solubility thermodynamic
1500

###

Experiment: Intrinsic clearance in rat hepatocytes assessed per million cells
Assay type: ADME, cell-based, Hepatocyte
Details: read-out: CLH
Label scheme, based on hepatocyte CLint: low: < 20 µL/min/1e6 cells; middle: ≥ 20 µL/min/1e6 cells and < 40 µL/min/1e6 cells; high: ≥ 40 µL/min/1e6 cells

A selection of reference data follows.
>>> df
                                   molecule  assigned_category
0  C[C@@H]1Cc2c(ccc3[nH]ncc23)[C@@H](c2ccc(NCCNCCCF)cn2)N1CC(F)(F)F             middle
1  C[C@@H]1Cc2c(ccc3[nH]ncc23)[C@@H](c2ccc(NC3(C)CN(CCCF)C3)cn2)N1CC(F)(F)F             middle
2  CC1(C)Cc2c(ccc3[nH]ncc23)[C@@H](c2ccc(NC3CN(CCCF)C3)cn2)N1CC(F)(F)F               high
3  COc1cc(OCCN2CC(CF)C2)ccc1[C@@H]1c2ccc3[nH]ncc3c2C[C@@H](C)N1CC(C)(C)F             middle
4  CC(C)CN1[C@H](c2ccc(OCCN3CC(CF)C3)cc2)c2ccc3[nH]ncc3c2C[C@H]1C               high
5  C[C@@H]1Cc2c(ccc3[nH]ncc23)[C@@H](c2ccc(O[C@H]3CCN(CCCF)C3)cn2)N1CC(F)(F)F               high
6  COc1cc(NC2CN(CCCF)C2)ccc1[C@@H]1c2ccc3[nH]ncc3c2C[C@@H](C)N1CC1(F)CC1                low
7  C[C@@H]1Cc2c(ccc3[nH]ncc23)[C@@H](c2ccc(NC3CN(CCCF)C3)cn2)N1CC(F)F             middle
8  COc1cc(NC2CN(CCCF)C2)ccc1[C@@H]1c2ccc3[nH]ncc3c2C[C@@H](C)N1CC(C)(C)F                low

Please report the category associated with COc1cc(NC2CN(CCCF)C2)ccc1[C@@H]1c2ccc3[nH]ncc3c2C[C@@H](C)N1CC(F)(F)F , nothing else.
low

###

Experiment: Intrinsic clearance in human hepatocytes assessed per million cells
Assay type: ADME, cell-based, Hepatocyte
Settings: read-out: CLH
The entries below come with measured hepatocyte CLint values attached.
Answer in µL/min/1e6 cells, number only, no unit symbol.

>>> df
                                   molecule  measured_result
0  COc1cc(OCCN2CC(CF)C2)ccc1[C@@H]1c2ccc3[nH]ncc3c2C[C@@H](C)N1CC(C)C                3
1  CC(C)CN1[C@H](c2ccc(OCCN3CC(CF)C3)cn2)c2ccc3[nH]ncc3c2C[C@H]1C                8
2  CC(C)CN1[C@H](c2c(F)cc(OCCN3CC(CF)C3)cc2F)c2ccc3[nH]ncc3c2C[C@H]1C                9
3  CC(C)CN1[C@H](c2ccc(OCCN3CC(CF)C3)cc2)c2ccc3[nH]ncc3c2C[C@H]1C                8
4  COc1cc(OCCN2CC(CF)C2)ccc1[C@@H]1c2ccc3[nH]ncc3c2C[C@@H](C)N1CC1(F)CC1                7
5  C[C@@H]1Cc2c(ccc3[nH]ncc23)[C@@H](c2ccc(OCCN3CC(CF)C3)cn2)N1CC(F)(F)F                3
6  C[C@@H]1Cc2c(ccc3[nH]ncc23)[C@@H](c2ccc(OCCN3CC(CF)C3)cn2)N1CC1(F)CC1                8
7  C[C@@H]1Cc2c(ccc3[nH]ncc23)[C@@H](c2ccc(N[C@H]3CCN(CCCF)C3)cn2)N1CC(F)(F)F                5

Query (molecule): C[C@@H]1Cc2c(ccc3[nH]ccc23)[C@@H](c2ccc(NC3CN(CCCF)C3)cn2)N1CC(F)(F)F ; field requested: hepatocyte CLint
3

Query (molecule): C[C@@H]1Cc2c(ccc3[nH]ncc23)[C@@H](c2ccc(OCCN3CC(CF)C3)cn2)N1CC(F)F ; field requested: hepatocyte CLint
5

Query (molecule): C[C@@H]1Cc2c(ccc3[nH]ncc23)[C@@H](c2c(F)cc(OCCN3CC(CF)C3)cc2F)N1CC(C)(C)F ; field requested: hepatocyte CLint
8

Query (molecule): COc1cc(OCCN2CC(CF)C2)ccc1[C@@H]1c2ccc3[nH]ncc3c2C[C@@H](C)N1CC(C)(C)F ; field requested: hepatocyte CLint
12
